target: PI4K2A (Homo sapiens); construct: purchased Reaction Biology Corp; assay: Kinase panel assay (lipid kinase); type: biochemical; conditions: control PIK-93
Sequence (Q9BTU6 whole entry): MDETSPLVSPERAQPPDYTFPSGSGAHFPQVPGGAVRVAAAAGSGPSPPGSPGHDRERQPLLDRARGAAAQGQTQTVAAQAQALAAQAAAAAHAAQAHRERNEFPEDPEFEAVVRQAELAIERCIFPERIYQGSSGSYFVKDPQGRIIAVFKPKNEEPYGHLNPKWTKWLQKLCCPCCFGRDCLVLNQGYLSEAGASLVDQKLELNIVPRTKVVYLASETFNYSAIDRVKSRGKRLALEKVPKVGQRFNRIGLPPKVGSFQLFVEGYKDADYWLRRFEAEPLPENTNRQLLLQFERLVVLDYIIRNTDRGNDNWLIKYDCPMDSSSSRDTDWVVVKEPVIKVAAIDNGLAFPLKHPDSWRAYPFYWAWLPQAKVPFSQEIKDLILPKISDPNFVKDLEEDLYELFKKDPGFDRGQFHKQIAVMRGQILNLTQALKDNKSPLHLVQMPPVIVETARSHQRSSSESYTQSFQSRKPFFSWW
Measure: IC50 (µM)

compound="CC(=O)Nc1nc(C)c(-c2ccc(Cl)c(S(=O)(=O)NCCO)c2)s1 [PIK-93, reference compound]" result_units=µM endpoint_value=18.5
